- test system: human α2A (Homo sapiens)
- Construct: expressed in transfected cells; host or cells: CHO (CHO-C10)
- Sequence (P08913 whole entry): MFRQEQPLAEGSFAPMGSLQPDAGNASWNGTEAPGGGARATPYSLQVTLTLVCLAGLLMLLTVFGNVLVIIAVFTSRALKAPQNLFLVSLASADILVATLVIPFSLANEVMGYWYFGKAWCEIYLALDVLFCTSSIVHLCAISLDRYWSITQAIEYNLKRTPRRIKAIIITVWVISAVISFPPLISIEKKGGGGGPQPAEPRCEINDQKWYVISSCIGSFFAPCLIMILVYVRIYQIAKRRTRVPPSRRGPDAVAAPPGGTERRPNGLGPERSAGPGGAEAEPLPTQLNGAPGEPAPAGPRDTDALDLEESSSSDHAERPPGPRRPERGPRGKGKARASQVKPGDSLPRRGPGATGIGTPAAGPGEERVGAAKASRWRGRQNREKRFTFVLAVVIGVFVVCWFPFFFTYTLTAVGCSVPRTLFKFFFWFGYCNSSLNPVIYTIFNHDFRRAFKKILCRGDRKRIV
- method summary: Receptor binding assay, [3H]rauwolscine, CHO-C10 cell membranes
- details: 22°C, 30 minutes
measurement kind: Ki (nM)
Give bare numbers, in nM.

The following compounds have reported results that may help.
INSERT INTO results (substance_smiles, recorded_value) VALUES
  ('Clc1ccccc1Nc1ncc[nH]1', 287),
  ('Cc1c(Nc2ncc[nH]2)ccc2c1OCCO2', 1.7),
  ('Clc1cccc(Cl)c1Nc1ncc[nH]1', 95);

The compound listed as COc1ccc(Nc2ncc[nH]2)c(C)c1 shows Ki equal to 10

---

- test system: α2A receptor (Oryctolagus cuniculus)
- Construct: The prostatic ends of the vas deferens (2-3 cm) were removed from albino rabbits; from tissue; host or cells: rabbit vas deferens (prostatic end)
- Sequence (Q5ZQK3 1-451): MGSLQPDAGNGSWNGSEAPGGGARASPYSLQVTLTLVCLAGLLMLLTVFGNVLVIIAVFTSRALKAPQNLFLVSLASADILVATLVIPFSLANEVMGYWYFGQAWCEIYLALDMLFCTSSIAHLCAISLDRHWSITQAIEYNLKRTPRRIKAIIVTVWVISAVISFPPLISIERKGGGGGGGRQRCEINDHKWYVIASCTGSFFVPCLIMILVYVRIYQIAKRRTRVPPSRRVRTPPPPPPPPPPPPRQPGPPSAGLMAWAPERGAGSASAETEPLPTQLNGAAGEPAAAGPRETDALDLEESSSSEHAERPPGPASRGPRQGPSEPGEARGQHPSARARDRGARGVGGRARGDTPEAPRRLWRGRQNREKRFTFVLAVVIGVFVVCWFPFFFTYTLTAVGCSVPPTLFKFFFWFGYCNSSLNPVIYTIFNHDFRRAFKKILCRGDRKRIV
- method summary: Vas deferens functional assay: reduction of electrically evoked contractions
- Format: cell-based
- details: field-stimulated isolated rabbit vas deferens, 50% reduction in peak height
# label = YES if EC50 < 40 nM else NO

Solved cases below.
INSERT INTO assay_data (substance_smiles, cat) VALUES
  ('Brc1c(Nc2ncc[nH]2)ccc2nccnc12', 'NO'),
  ('Cc1c(Nc2ncc[nH]2)ccc2c1OCCO2', 'YES'),
  ('Cc1c(Nc2ncc[nH]2)ccc2nccnc12', 'YES'),
  ('Clc1cccc(Cl)c1Nc1ncc[nH]1', 'NO');

We next turn to a different compound, shown below.
Request: Just wondering, is EC50 of c1ccc(Nc2ncc[nH]2)cc1 below 40 nM?
Result: NO

---

- test system: rat α2B adrenoceptor (Rattus norvegicus, UniProt P19328)
- Construct: expressed in transfected cells; host or cells: CHO (CHO-RNG)
- Sequence (P19328 whole entry): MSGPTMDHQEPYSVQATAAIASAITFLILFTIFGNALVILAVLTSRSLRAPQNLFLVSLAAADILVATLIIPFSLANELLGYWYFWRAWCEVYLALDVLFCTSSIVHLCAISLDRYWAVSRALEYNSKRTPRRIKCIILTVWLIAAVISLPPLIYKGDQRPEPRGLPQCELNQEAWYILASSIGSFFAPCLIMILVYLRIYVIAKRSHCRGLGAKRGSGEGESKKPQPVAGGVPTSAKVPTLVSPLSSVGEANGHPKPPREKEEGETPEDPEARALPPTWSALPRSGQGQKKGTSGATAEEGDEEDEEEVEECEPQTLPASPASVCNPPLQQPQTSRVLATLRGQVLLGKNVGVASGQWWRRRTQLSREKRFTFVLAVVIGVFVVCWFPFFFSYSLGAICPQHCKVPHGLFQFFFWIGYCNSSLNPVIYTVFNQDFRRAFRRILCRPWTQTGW
- method summary: Receptor binding assay, [3H]rauwolscine, CHO-RNG cell membranes
- details: 22°C, 30 minutes
Answer each item with its documented log10 Ki.
Record value = log10 of Ki given in nM.

Examples with their reported log10 Ki follow.
INSERT INTO assay_data (substance_smiles, recorded_value) VALUES
  ('Brc1c(Nc2ncc[nH]2)ccc2nccnc12', 4.11),
  ('Cc1c(Nc2ncc[nH]2)ccc2nccnc12', 3.06),
  ('Cc1c(Nc2ncc[nH]2)ccc2c1NCCO2', 2.64),
  ('Brc1ccccc1Nc1ncc[nH]1', 3.16),
  ('c1cc2c(c(Nc3ncc[nH]3)c1)CCCC2', 2.18),
  ('Clc1cccc(Cl)c1Nc1ncc[nH]1', 2.77),
  ('Clc1ccccc1Nc1ncc[nH]1', 3.29),
  ('Cc1ccccc1Nc1ncc[nH]1', 2.75),
  ('COc1ccc(Nc2ncc[nH]2)c(C)c1', 2.64),
  ('c1ccc(Nc2ncc[nH]2)cc1', 3.28);

Turning now to a further record.
For reference, reported log10 Ki for Cc1c(Nc2ncc[nH]2)ccc2c1OCCO2 stands at 1.91

---

- test system: human α2A (Homo sapiens)
- Construct: expressed in transfected cells; host or cells: CHO (CHO-C10)
- method summary: Receptor binding assay, [3H]rauwolscine, CHO-C10 cell membranes
- details: 22°C, 30 minutes
measurement kind: Ki (nM)
Numbers only, in nM.

Below, each entry is followed by its recorded Ki result.
INSERT INTO measurements (substance_smiles, measurement_kind, recorded_value) VALUES
  ('Cc1ccccc1Nc1ncc[nH]1', 'Ki', 73),
  ('Brc1ccccc1Nc1ncc[nH]1', 'Ki', 214),
  ('Brc1c(Nc2ncc[nH]2)ccc2nccnc12', 'Ki', 512),
  ('c1ccc(Nc2ncc[nH]2)cc1', 'Ki', 394),
  ('Cc1c(Nc2ncc[nH]2)ccc2nccnc12', 'Ki', 31),
  ('c1cc2c(c(Nc3ncc[nH]3)c1)CCCC2', 'Ki', 39);

Let us examine a further case.
Just so you know, measured Ki for Cc1c(Nc2ncc[nH]2)ccc2c1NCCO2 came out at 6.3

---

Would you mind telling me the reported Ki of each entry?
- test system: human α2C (Homo sapiens, UniProt P18825)
- Construct: expressed in transfected cells; host or cells: CHO (CHO-C4)
- Sequence (P18825 whole entry): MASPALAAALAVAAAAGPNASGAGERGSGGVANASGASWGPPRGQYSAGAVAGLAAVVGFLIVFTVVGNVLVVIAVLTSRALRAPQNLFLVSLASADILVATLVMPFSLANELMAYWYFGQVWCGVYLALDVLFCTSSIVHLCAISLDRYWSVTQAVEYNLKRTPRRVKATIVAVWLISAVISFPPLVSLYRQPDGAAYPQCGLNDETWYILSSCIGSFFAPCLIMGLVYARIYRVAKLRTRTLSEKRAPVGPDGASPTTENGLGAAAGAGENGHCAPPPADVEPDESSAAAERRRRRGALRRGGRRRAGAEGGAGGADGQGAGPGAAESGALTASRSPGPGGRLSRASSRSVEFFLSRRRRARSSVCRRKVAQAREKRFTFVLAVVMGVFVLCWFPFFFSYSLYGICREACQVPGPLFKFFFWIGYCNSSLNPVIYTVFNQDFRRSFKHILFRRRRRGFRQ
- method summary: Receptor binding assay, [3H]rauwolscine, CHO-C4 cell membranes
- details: 22°C, 30 minutes
Number first, unit second: that is the form wanted.

Below, each entry is followed by its recorded Ki result.
INSERT INTO measurements (substance_smiles, recorded_value) VALUES
  ('COc1ccc(Nc2ncc[nH]2)c(C)c1', '512 nM'),
  ('Cc1c(Nc2ncc[nH]2)ccc2c1OCCO2', '19 nM'),
  ('c1ccc(Nc2ncc[nH]2)cc1', '3240 nM'),
  ('Brc1ccccc1Nc1ncc[nH]1', '2390 nM'),
  ('Clc1cccc(Cl)c1Nc1ncc[nH]1', '1120 nM'),
  ('Cc1ccccc1Nc1ncc[nH]1', '577 nM');

Below are some compounds; for each one, tell me its Ki.
1. Clc1ccccc1Nc1ncc[nH]1
2. Cc1c(Nc2ncc[nH]2)ccc2c1NCCO2
3. Brc1c(Nc2ncc[nH]2)ccc2nccnc12
4. c1cc2c(c(Nc3ncc[nH]3)c1)CCCC2

Result:
2250 nM
229 nM
9670 nM
252 nM

---

- test system: α1 receptors
- method summary: Receptor binding assay, [3H]prazosin, human cerebral cortex (HCC) membranes
- details: 22°C, 30 minutes, read-out: Ki (nM) α1 human brain
Give log10(Ki) for every item shown.
Log10 applied to Ki; unit prior to transform: nM.

Examples with their reported log10(Ki) follow.
INSERT INTO results (substance_smiles, recorded_value) VALUES
  ('Cc1ccccc1Nc1ncc[nH]1', 4.03),
  ('COc1ccc(Nc2ncc[nH]2)c(C)c1', 3.88);

I would be grateful if you could provide log10(Ki) for each of the following entries.
1. Brc1c(Nc2ncc[nH]2)ccc2nccnc12
2. Cc1c(Nc2ncc[nH]2)ccc2c1OCCO2
3. c1ccc(Nc2ncc[nH]2)cc1
4. Brc1ccccc1Nc1ncc[nH]1
5. Clc1cccc(Cl)c1Nc1ncc[nH]1
6. Clc1ccccc1Nc1ncc[nH]1
7. c1cc2c(c(Nc3ncc[nH]3)c1)CCCC2

Result:
[5.00, 3.33, 4.83, 4.00, 3.77, 4.37, 3.70]

Please go through the list and note log10(Ki) for each compound.
1. Cc1c(Nc2ncc[nH]2)ccc2nccnc12
2. Cc1c(Nc2ncc[nH]2)ccc2c1NCCO2

Result:
1: 4.49; 2: 4.17
